Each entry below carries its reported Potency.
experiment: qHTS Assay for Modulators of miRNAs and/or Inhibitors of miR-21; conditions: HeLa miR-21-FLuc reporter, luciferase luminescence, 48 h; actives lower the signal; note: potency is the fitted concentration of half-maximal effect; nearly all actives have a fitted effect of over 55% in size
Among all 340,000 compounds or so, about 3,300 (0.97%) were called active. About 9% were inconclusive and are not listed. This is one part of the list.
measured.attribute: Potency

> print(dat)
                                    compound  measured.attribute             result
 1  Cc1cc(C)cc(N(CC(=O)Nc2ccc(-c3nc4ccc(C)cc4s3)cc2)S(C)(=O)=O)c1             Potency   3.29 µM (active)
 2   CSc1ccccc1OCc1cc(C(=O)N(C)Cc2ccncn2)no1             Potency   8.26 µM (active)
 3  COCCC1CCCCN1C(=O)c1ccc2nc(Cc3ccccc3F)oc2c1 (stereo not given)             Potency   4.14 µM (active)
 4   CC(=O)Oc1ccc(-c2csc(Nc3cccc(C)n3)n2)cc1             Potency   1.47 µM (active)
 5           Cc1cc(N/N=C/c2ccncc2)nc2ccccc12             Potency   5.85 µM (active)
 6            COc1nc(-c2ccccc2)nnc1-c1ccccc1             Potency   1.17 µM (active)
 7           Oc1ccc(-c2csc(Nc3ccccn3)n2)cc1O             Potency   2.61 µM (active)
 8     Cc1ccccc1CNC(=O)Cc1ccccc1[N+](=O)[O-]             Potency   5.21 µM (active)
 9  Cc1cccc(-n2ncc3c(N4CCC5(CC4)OCCO5)ncnc32)c1             Potency   1.85 µM (active)
10            Nc1nc2ccc(-c3nc4ccccc4o3)cc2s1             Potency  0.927 µM (active)

###

Each entry below carries its reported Potency.
assay: qHTS Assay for Modulators of miRNAs and/or Inhibitors of miR-21; conditions: HeLa miR-21-FLuc reporter, luciferase luminescence, 48 h; actives lower the signal; note: potency is the fitted concentration of half-maximal effect; nearly all actives have a fitted effect of over 55% in size
In all, about 340,000 compounds went through this assay and about 3,300 (0.97%) were called active. Not shown: some 9% with an inconclusive outcome. This is one part of the list.
measured.attribute: Potency

> print(dat)
                                   molecule             result
1      Cc1cccc(OCC(=O)O/N=C(\N)c2ccccn2)c1C   6.56 µM (active)
2         O=C(NCCN1CCOCC1)c1cc(-c2cccs2)on1   14.7 µM (active)
3      O=C(N/N=C/C(Cl)=C/c1ccccc1)c1ccccc1F   8.26 µM (active)
4   COc1ccc(-c2nc3ccc(NS(C)(=O)=O)cc3o2)cc1   1.17 µM (active)
5  CC(=O)c1ccc(NC(=O)c2ncn(-c3ccccc3)n2)cc1   5.85 µM (active)
6    O=C(NC1CCCCCC1)c1cc2c(=O)n3ccccc3nc2s1   10.4 µM (active)
7               CCCCNC(=O)N(C)c1nc2ccccc2s1   8.26 µM (active)
8        COc1ccc(C(=O)Nc2ccccc2C(=O)O)cc1Cl   4.65 µM (active)
9  O=C(Nc1ccc(-c2nc3cc(Cl)ccc3o2)cc1)C1CCCO1 (centres undefined)  0.656 µM (active)

###

Each entry below carries its reported Potency.
assay: qHTS Assay for Modulators of miRNAs and/or Inhibitors of miR-21; conditions: HeLa miR-21-FLuc reporter, luciferase luminescence, 48 h; actives lower the signal; note: potency is the fitted concentration of half-maximal effect; nearly all actives have a fitted effect of over 55% in size
Screen size: about 340,000 compounds; about 3,300 (0.97%) were called active. Another 9% or so got no clear call; they are omitted. Some of the results follow.
measured.attribute: Potency

> print(dat)
                                    compound  measured.attribute             result
 1     Cc1ccc(-c2cc(NC(=O)c3ccccc3Cl)on2)cc1             Potency   2.61 µM (active)
 2  Nc1c(-c2nc(-c3cccs3)no2)nnn1-c1cccc(F)c1             Potency  0.208 µM (active)
 3        CN(C)c1ccc(-c2nnc(-c3cccnc3)o2)cc1             Potency   1.31 µM (active)
 4        O=C(Nc1cc(F)c(Br)cc1F)c1ccc(Cl)cc1             Potency   3.29 µM (active)
 5  O=C(Nc1ccccc1)c1ccc(-c2ccccc2C(F)(F)F)o1             Potency   13.1 µM (active)
 6      O=C(CSc1nc2ccccc2o1)c1cc2ccccc2oc1=O             Potency   14.7 µM (active)
 7        COc1ccc(/C(N)=N/OC(=O)C2CCCCC2)cc1             Potency   4.65 µM (active)
 8   COc1cc(Cl)c(NC(=O)c2cc3ccccn3n2)c(OC)c1             Potency   6.56 µM (active)
 9             c1ccc(-c2cnc(-c3cccnc3)o2)cc1             Potency   13.1 µM (active)
10  CC(O)c1ccc(OCCN(C)c2ccccn2)cc1 (centres undefined)             Potency   16.5 µM (active)
11  O=C(Cn1c(/C=C/c2ccccc2)nc2ccccc21)Nc1ccc(F)cc1             Potency   5.21 µM (active)
12  CCOC(=O)CC(NC(=O)c1cc2cccc(OC)c2oc1=O)c1ccc(OC)cc1 (centres undefined)             Potency   16.5 µM (active)
13            Cc1ccc(-c2nnc(-c3cccnc3)o2)cc1             Potency   4.65 µM (active)
14    Cc1ccc(OCC(=O)O/N=C(\N)c2ccncc2)c(C)c1             Potency   4.14 µM (active)

###

Each entry below carries its reported Potency.
assay: qHTS Assay for Modulators of miRNAs and/or Inhibitors of miR-21; conditions: HeLa miR-21-FLuc reporter, luciferase luminescence, 48 h; actives lower the signal; note: potency is the fitted concentration of half-maximal effect; nearly all actives have a fitted effect of over 55% in size
Out of some 340,000 compounds screened, about 3,300 (0.97%) were called active. Another 9% or so got no clear call; they are omitted. This is one part of the list.
measured.attribute: Potency

> print(dat)
                               record.smiles             result
 1               Nc1ccc(N=Nc2ccccc2Cl)c(N)n1   2.07 µM (active)
 2          Cc1nn(C)cc1/C=C/C(=O)c1ccc(O)cc1   13.1 µM (active)
 3      COc1ccc(N/N=C(\C#N)C(=N)N2CCCCC2)cc1   4.65 µM (active)
 4          COc1ncccc1-c1nnn(-c2ccc(C)cc2)n1   1.47 µM (active)
 5  O=C(CCCn1c(=O)c2cccn2c2ccccc21)NCCc1ccc(Cl)cc1   1.47 µM (active)
 6  O=C(C[n+]1cn(C(F)F)c2ccccc21)c1ccc(OC(F)F)cc1   5.85 µM (active)
 7            Cc1c(/C=C/C(=O)c2ccccc2O)cnn1C   3.69 µM (active)
 8    Cc1ccc2nc(Cl)c(/C=C/C(=O)c3ccco3)cc2c1   14.7 µM (active)
 9         Cc1ccc(N/C=C/C(=O)c2ccc(C)cc2)cc1   2.33 µM (active)
10          CCN(CC)N=Nc1[nH]nc2nc(C)cc(C)c12   16.5 µM (active)
11              Clc1ccccc1SCc1nc2ccccc2[nH]1   7.36 µM (active)
12      Cc1ccc(-n2nnc(-c3ccnc4ccccc34)n2)cc1   1.85 µM (active)
13  CCCC(=O)Nc1ccc2oc(-c3ccc(O)c(Br)c3)nc2c1  0.927 µM (active)
14                Oc1ccc(-c2cn3ccccc3n2)cc1O   3.29 µM (active)
15              c1ccc(CCc2nc3ccccc3[nH]2)cc1   9.27 µM (active)
16  Cc1oc(C(C)(C)C)cc1C(=O)Nc1ccc(C(=O)O)cc1   8.26 µM (active)
17  Fc1ccccc1-n1ncc2c1ncn1nc(-c3ccccc3Cl)nc21  0.736 µM (active)
18  Cc1ccccc1OCc1nc2ccccc2c(=O)n1/N=C/c1ccco1   10.4 µM (active)
19    CCc1ccc(N2C(=O)Cc3c2nc(N)c(C#N)c3N)cc1   16.5 µM (active)
20  Cc1n[nH]c(=S)n1/N=C/c1ccccc1OCc1ccc(Cl)cc1   14.7 µM (active)
21          CCC(=O)Nc1ccc2oc(-c3cccnc3)nc2c1   8.26 µM (active)
22          Cc1ccc(-n2nnc(-c3cccnc3Cl)n2)cc1  0.521 µM (active)
23           O=c1cc(CNc2ccc(Br)cc2)nc2sccn12   18.5 µM (active)
24  COc1cc(/C=N/n2c(C)n[nH]c2=S)ccc1OCc1ccccc1   6.56 µM (active)
25  CCOC(=O)c1c(C)oc2c1c(CN1CCN(CCO)CC1)c(O)c1ccccc12   10.4 µM (active)
26    Cc1ccccc1Nc1nc(N)nc(COC(=O)c2ccccc2)n1   13.1 µM (active)
27      Cn1c(-c2ccc3nc(N)sc3c2)nc2cc(N)ccc21   18.5 µM (active)
28       Cc1ccc(N/N=C(\C#N)C(=N)N2CCOCC2)cc1   10.4 µM (active)
29  COc1ccc2c(c1)O[C@H](c1ccc3c(c1)OCO3)[C@@H](O)C2=O   11.7 µM (active)
30        COc1cc(/C=N/n2cnnc2)ccc1OCc1ccccc1   18.5 µM (active)
31            CCn1ncc(/C=C/C(=O)c2ccccc2)c1C   5.21 µM (active)
32         CCOc1ncccc1C(=O)Nc1ccc2nc(C)sc2c1   8.26 µM (active)
33                Cc1cc(-c2nc3ncccc3o2)ccc1N   3.29 µM (active)
34      COc1ccc(N/C=C\C(=O)c2ccc(C)cc2)cc1OC   14.7 µM (active)
35             c1ccc(CSCc2nc3ccccc3[nH]2)cc1   7.36 µM (active)
